This collection of values is drawn from BindingDB's records for patent US20250313563.

Glycogen synthase kinase-3 alpha (Homo sapiens) IC50 data
Sequence (P49840 whole entry): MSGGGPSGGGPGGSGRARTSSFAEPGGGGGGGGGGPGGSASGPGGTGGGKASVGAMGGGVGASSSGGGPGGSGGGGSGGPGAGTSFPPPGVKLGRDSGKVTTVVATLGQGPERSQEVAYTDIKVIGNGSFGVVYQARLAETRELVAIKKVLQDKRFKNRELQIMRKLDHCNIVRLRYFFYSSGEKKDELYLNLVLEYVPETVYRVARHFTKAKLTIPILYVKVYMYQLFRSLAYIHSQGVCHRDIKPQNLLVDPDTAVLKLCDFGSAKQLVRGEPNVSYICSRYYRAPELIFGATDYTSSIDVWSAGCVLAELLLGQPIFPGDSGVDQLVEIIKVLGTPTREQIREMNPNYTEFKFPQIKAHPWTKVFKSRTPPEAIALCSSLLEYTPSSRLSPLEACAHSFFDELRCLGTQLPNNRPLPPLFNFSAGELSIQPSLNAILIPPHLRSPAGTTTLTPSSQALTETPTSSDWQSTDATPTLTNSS

Recorded IC50, per entry:
CC[C@]1(c2cccc(N3C[C@@H](C)[C@@H](C)C3)c2)C2=CN=NC2NC2=C1C(=O)CC(C)(C)C2 (stereo partly drawn) [US20250313563, Compound 918326]	100 to 1000 nM
CC[C@@]1(c2cccc(-c3ccnc(OC)c3Cl)c2)C2=CN=NC2NC2=C1C(=O)NC(C)(C)C2 (stereo partly drawn) [US20250313563, Compound 952754]	< 100 nM
CCC1(c2cccc(N(C)c3nc(C)cc(C)n3)c2)C2=CN=NC2NC2=C1C(=O)CC(C)(C)C2 (stereo not drawn) [US20250313563, Compound 926304]	100 to 1000 nM
CCC1(c2cccc(-c3cnnn3C)c2)C2=CN=NC2NC2=C1C(=O)CC(C)(C)C2 (stereo not drawn) [US20250313563, Compound 947398]	< 100 nM

Query block: Data request, read-out IC50, for CC(=O)N1CC[C@@]2(C1)C[C@@]1(CO2)C2=C(N=NC2)NC2=C1C(=O)CC(C)(C)C2 [US20250313563, Compound 948320]
Result block: 100 to 1000 nM
